assay comment: Solubility in fasted-state simulated intestinal fluid (FaSSIF)
Assay type: physicochemical
condition info: FaSSIF, pH 6.5, fassif, kinetic from dmso stock, FaSSIF pH 6.5, 300 µM sample solution, room temperature
Note to self: values exactly at 200 µM are fulfilled. So solubility at 1 h at or above 200 µM is fulfilled, below is not fulfilled.

compound: COc1nc(F)ccc1[C@H](O)CC[C@@H](C)[C@H]1CC[C@H]2[C@H]3[C@H](CC[C@]12C)[C@@]1(C)CC[C@H](O)[C@H](O)[C@@H]1CC3(F)F
cat: not fulfilled

compound: C[C@H](CCCC(O)c1ccc(F)nc1OC1CC1)[C@H]1CC[C@H]2[C@H]3[C@H](CC[C@]12C)[C@@]1(C)CC[C@H](O)[C@H](O)[C@@H]1CC3(F)F (some centres unmarked)
cat: fulfilled

compound: C[C@H](CCCC(O)c1cccc2cn[nH]c12)[C@H]1CC[C@H]2[C@H]3[C@H](CC[C@]12C)[C@@]1(C)CC[C@H](O)[C@H](O)[C@@H]1CC3(F)F (some centres unmarked)
cat: not fulfilled

compound: CCOc1nc(F)ccc1[C@H](O)CCC[C@@H](C)[C@H]1CC[C@H]2[C@H]3[C@H](CC[C@]12C)[C@@]1(C)CC[C@H](O)[C@H](O)[C@@H]1CC3(F)F (single isomer, unassigned)
cat: fulfilled

compound: COc1cc(F)c(C(O)CCC[C@@H](C)[C@H]2CC[C@H]3[C@H]4[C@H](CC[C@]23C)[C@@]2(C)CC[C@H](O)[C@H](O)[C@@H]2CC4(F)F)c(F)c1 (some centres unmarked)
cat: fulfilled

compound: C[C@H](CCCC(O)c1c(F)cccc1F)[C@H]1CC[C@H]2C3=C(F)C[C@H]4[C@@H](O)[C@@H](O)CC[C@]4(C)[C@H]3CC[C@]12C (some centres unmarked)
cat: fulfilled

compound: C[C@H](CCCC(O)c1ccccc1F)[C@H]1CC[C@H]2[C@H]3[C@H](CC[C@]12C)[C@@]1(C)CC[C@H](O)[C@H](O)[C@@H]1CC3(F)F (some centres unmarked)
cat: fulfilled

compound: COc1nc(F)ccc1C(O)CCC[C@@H](C)[C@H]1CC[C@H]2[C@H]3[C@H](CC[C@]12C)[C@@]1(C)CC[C@H](O)[C@H](O)[C@@H]1CC3(F)F (single isomer, unassigned) [Compound 188]
cat: not fulfilled

compound: COc1ccc(C(O)CCC[C@@H](C)[C@H]2CC[C@H]3[C@H]4[C@H](CC[C@]23C)[C@@]2(C)CC[C@H](O)[C@H](O)[C@@H]2CC4(F)F)cc1 (some centres unmarked)
cat: fulfilled

compound: C[C@H](CCCC(O)c1cccc2c1cnn2C)[C@H]1CC[C@H]2[C@H]3[C@H](CC[C@]12C)[C@@]1(C)CC[C@H](O)[C@H](O)[C@@H]1CC3(F)F (single isomer, unassigned)
cat: not fulfilled

compound: C[C@H](CCCC(O)c1cccc2c1OC(F)(F)O2)[C@H]1CC[C@H]2[C@H]3[C@H](CC[C@]12C)[C@@]1(C)CC[C@H](O)[C@H](O)[C@@H]1CC3(F)F (single isomer, unassigned)
cat: fulfilled

###

assay comment: Metabolic stability experiment of mouse liver microsomes
Type: in vitro ADME

compound: COc1c(F)cccc1C(O)CCC[C@@H](C)[C@H]1CC[C@H]2[C@@H]3CC[C@H]4[C@@H](O)[C@@H](O)CC[C@]4(C)[C@H]3CC[C@]12C (some centres unmarked) [Compound 7]
half-life at 1 µM: 37.4 min
//
compound: C[C@H](CCCC(O)c1c(F)cccc1F)[C@H]1CC[C@H]2C3=C(F)C[C@H]4[C@@H](O)[C@@H](O)CC[C@]4(C)[C@H]3CC[C@]12C (some centres unmarked) [Compound 21]
half-life at 1 µM: 161 min
//
compound: COc1cccc([C@@H](O)CCC[C@@H](C)[C@H]2CC[C@H]3[C@H]4[C@H](CC[C@]23C)[C@@]2(C)CC[C@H](O)[C@H](O)[C@@H]2CC4(F)F)c1OC [Compound 70]
half-life at 1 µM: 34.9 min
//
compound: COc1cccc(F)c1[C@H](O)CCC[C@@H](C)[C@H]1CC[C@H]2[C@H]3[C@H](CC[C@]12C)[C@@]1(C)CC[C@H](O)[C@H](O)[C@@H]1CC3(F)F [Compound 128]
half-life at 1 µM: > 186 min
//
compound: C[C@H](CCCC(C)(C)O)[C@H]1CC[C@@]2(C)C3=C(CC[C@]12C)[C@@]1(C)CC[C@H](O)C(C)(C)[C@@H]1CC3 [Comparative compound 1, reference compound]
half-life at 1 µM: 7.85 min

###

assay comment: Solubility in fasted-state simulated intestinal fluid (FaSSIF)
Type: physicochemical
condition info: FaSSIF, pH 6.5, fassif, kinetic from dmso stock, FaSSIF pH 6.5, 300 µM sample solution, room temperature
Recorded solubility at 1 h, one value per entry.

molecule: COc1cccc(C(O)CCC[C@@H](C)[C@H]2CC[C@H]3[C@H]4[C@H](CC[C@]23C)[C@@]2(C)CC[C@H](O)[C@H](O)[C@@H]2CC4(F)F)c1 (some centres unmarked)
solubility at 1 h, µM: 177
//
molecule: COc1cc(F)ccc1[C@@H](O)CCC[C@@H](C)[C@H]1CC[C@H]2[C@H]3[C@H](CC[C@]12C)[C@@]1(C)CC[C@H](O)[C@H](O)[C@@H]1CC3(F)F
solubility at 1 h, µM: 178
//
molecule: COc1nc(F)cnc1C(O)CCC[C@@H](C)[C@H]1CC[C@H]2[C@H]3[C@H](CC[C@]12C)[C@@]1(C)CC[C@H](O)[C@H](O)[C@@H]1CC3(F)F (some centres unmarked)
solubility at 1 h, µM: 280
//
molecule: COc1ncccc1C(O)CCC[C@@H](C)[C@H]1CC[C@H]2[C@H]3[C@H](CC[C@]12C)[C@@]1(C)CC[C@H](O)[C@H](O)[C@@H]1CC3(F)F (some centres unmarked)
solubility at 1 h, µM: 279
//
molecule: COc1cccc(C(O)CCC[C@@H](C)[C@H]2CC[C@H]3[C@H]4[C@H](CC[C@]23C)[C@@]2(C)CC[C@H](O)[C@H](O)[C@@H]2CC4(F)F)c1F (some centres unmarked)
solubility at 1 h, µM: 147

###

assay comment: Metabolic stability experiment of mouse liver microsomes
Type: in vitro ADME
Recorded half-life at 1 µM, one value per entry.

compound: COc1nc(F)ccc1C(O)CCC[C@@H](C)[C@H]1CC[C@H]2[C@H]3[C@H](CC[C@]12C)[C@@]1(C)CC[C@H](O)[C@H](O)[C@@H]1CC3(F)F (some centres unmarked)
unit of measurement: h
cmp: =
half-life at 1 µM: 3.08
//
compound: COc1ccccc1C(O)CCC[C@@H](C)[C@H]1CC[C@H]2C3=C(F)C[C@H]4[C@@H](O)[C@@H](O)CC[C@]4(C)[C@H]3CC[C@]12C (some centres unmarked)
unit of measurement: h
cmp: =
half-life at 1 µM: 0.203
//
compound: COc1ccccc1C(O)CCC[C@@H](C)[C@H]1CC[C@H]2[C@H]3[C@H](CC[C@]12C)[C@@]1(C)CC[C@H](O)CC1CC3(F)F (some centres unmarked)
unit of measurement: h
cmp: =
half-life at 1 µM: 1.38
//
compound: COc1cccc(F)c1C(O)CCC[C@@H](C)[C@H]1CC[C@H]2[C@H]3[C@H](CC[C@]12C)[C@@]1(C)CC[C@H](O)[C@H](O)[C@@H]1CC3(F)F (some centres unmarked)
unit of measurement: h
cmp: =
half-life at 1 µM: 1.88
//
compound: C[C@H](CCCC(O)c1ccccc1OC(F)(F)F)[C@H]1CC[C@H]2[C@H]3[C@H](CC[C@]12C)[C@@]1(C)CC[C@H](O)C(=O)[C@@H]1CC3(F)F (some centres unmarked)
unit of measurement: h
cmp: =
half-life at 1 µM: 1.78
//
compound: C[C@H](CCC1CC(N)C1)[C@H]1CC[C@H]2[C@@H]3CC[C@H]4C[C@@H](O)CC[C@]4(C)[C@H]3CC[C@]12C (some centres unmarked)
unit of measurement: h
cmp: =
half-life at 1 µM: 1.6
//
compound: COc1cc(F)ccc1[C@H](O)CCC[C@@H](C)[C@H]1CC[C@H]2[C@H]3[C@H](CC[C@]12C)[C@@]1(C)CC[C@H](O)[C@H](O)[C@@H]1CC3(F)F
unit of measurement: h
cmp: =
half-life at 1 µM: 4.85
//
compound: C[C@H](CCCC(O)c1cccc(OC(F)(F)F)c1)[C@H]1CC[C@H]2[C@H]3[C@H](CC[C@]12C)[C@@]1(C)CC[C@H](O)[C@H](O)[C@@H]1CC3(F)F (some centres unmarked)
unit of measurement: h
cmp: >
half-life at 1 µM: 3.08
//
compound: COc1cccc(C(O)CCC[C@@H](C)[C@H]2CC[C@H]3[C@H]4[C@H](CC[C@]23C)[C@@]2(C)CC[C@H](O)[C@H](O)[C@@H]2CC4(F)F)c1F (some centres unmarked)
unit of measurement: h
cmp: >
half-life at 1 µM: 3.08
//
compound: COc1cccc(C(O)CCC[C@@H](C)[C@H]2CC[C@H]3C4=C(F)C[C@H]5[C@@H](O)[C@@H](O)CC[C@]5(C)[C@H]4CC[C@]23C)c1F (some centres unmarked)
unit of measurement: h
cmp: =
half-life at 1 µM: 1.16
//
compound: C[C@H](CCCC(O)c1ccccc1OC(F)(F)F)[C@H]1CC[C@H]2[C@H]3[C@H](CC[C@]12C)[C@@]1(C)CC[C@H](O)[C@H](O)[C@@H]1CC3(F)F (some centres unmarked)
unit of measurement: h
cmp: =
half-life at 1 µM: 2.78

Taken from patent EP4752152A1.
